Entry source: patent US7846959B2

IC50 values, listed per item
Target: B-Raf (Homo sapiens, UniProt P15056)
Sequence (P15056 whole entry): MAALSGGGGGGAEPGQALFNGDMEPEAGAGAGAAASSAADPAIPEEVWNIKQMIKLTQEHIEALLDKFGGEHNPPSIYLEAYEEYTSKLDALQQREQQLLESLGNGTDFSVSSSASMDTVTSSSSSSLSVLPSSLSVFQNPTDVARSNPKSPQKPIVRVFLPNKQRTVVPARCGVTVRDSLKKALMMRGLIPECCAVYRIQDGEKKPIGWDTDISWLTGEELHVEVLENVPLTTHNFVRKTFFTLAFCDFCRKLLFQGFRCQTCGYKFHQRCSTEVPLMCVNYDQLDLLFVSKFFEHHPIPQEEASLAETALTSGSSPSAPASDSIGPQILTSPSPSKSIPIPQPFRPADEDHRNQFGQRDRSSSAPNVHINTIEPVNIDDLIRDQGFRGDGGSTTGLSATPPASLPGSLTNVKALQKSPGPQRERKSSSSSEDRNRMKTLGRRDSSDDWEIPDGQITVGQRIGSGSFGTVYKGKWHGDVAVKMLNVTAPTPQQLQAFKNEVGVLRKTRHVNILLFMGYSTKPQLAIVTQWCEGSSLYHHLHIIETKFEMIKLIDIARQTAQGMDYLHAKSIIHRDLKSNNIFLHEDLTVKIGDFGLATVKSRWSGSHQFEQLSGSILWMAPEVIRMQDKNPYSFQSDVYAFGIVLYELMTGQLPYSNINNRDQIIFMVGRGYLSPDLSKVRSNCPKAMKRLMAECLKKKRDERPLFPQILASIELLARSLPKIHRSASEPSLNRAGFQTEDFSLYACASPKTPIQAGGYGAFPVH
Assay: Luciferase-coupled chemiluminescence kinase assay (ATP consumption), B-Raf
Type: biochemical
Conditions: read-out: bRaf IC50
Protocol: Tyrosine kinase activity is determined by 1) measurement of kinase-dependent ATP consumption by in the presence of a generic substrate such as […], tyrosine (pEY), by luciferase/luciferin-mediated chemiluminescence or; 2) incorporation of radioactive phosphate derived from ^33P-ATP into a generic substrate which has been adsorbed onto the well surface of polystyrene microtiter plates. Phosphorylated substrate products are quantified by scintillation spectrometry. […]

Recorded IC50, per entry:
COMPOUND | READOUT_TYPE | VALUE
O=C(Nc1nc2cc(C3(O)c4ccccc4C(=O)N3Cc3ccccc3)ccc2[nH]1)OCC(O)CO (stereo not shown) | IC50 | < 100 nM
CCc1cccc(N2C(=O)c3ccccc3C2(O)c2ccc3[nH]c(NC(=O)OC)nc3c2)c1 (stereo not shown) | IC50 | < 100 nM
COC(=O)Nc1nc2cc(C3(O)c4ccccc4C(=O)N3c3cc(Cl)ccc3F)ccc2[nH]1 (stereo not shown) | IC50 | < 100 nM

Now consider the entry below.
Lookup: What value of measured IC50 is listed for COCC(C)(C)COC(=O)Nc1nc2cc(C3(O)c4ccccc4C(=O)N3Cc3ccccc3)ccc2[nH]1 (stereo not shown) ?
Found: 100 to 1000 nM

---

Target: B-Raf (Homo sapiens)
Assay: Luciferase-coupled chemiluminescence kinase assay (ATP consumption), B-Raf
Format: biochemical
Settings: read-out: bRaf IC50
Protocol: Tyrosine kinase activity is determined by 1) measurement of kinase-dependent ATP consumption by in the presence of a generic substrate such as […], tyrosine (pEY), by luciferase/luciferin-mediated chemiluminescence or; 2) incorporation of radioactive phosphate derived from ^33P-ATP into a generic substrate which has been adsorbed onto the well surface of polystyrene microtiter plates. Phosphorylated substrate products are quantified by scintillation spectrometry. […]
READOUT_TYPE: IC50

COMPOUND | READOUT_TYPE | VALUE
O=C1COc2ccc(C3(O)c4ccccc4C(=O)N3c3ccccc3Cl)cc2N1 (stereo not shown) | IC50 | 1 to 10 µM

Lookup: What value of measured IC50 is listed for Nc1nc2cc(C3(O)c4ccccc4C(=O)N3Cc3ccccc3)ccc2[nH]1 (stereo not shown) ?
Found: 1 to 10 µM

Lookup: What value of measured IC50 is listed for O=C(Nc1nc2cc(C3(O)c4ccccc4C(=O)N3Cc3ccccc3)ccc2[nH]1)OCc1ccccc1 (stereo not shown) ?
Found: < 0.1 µM

Lookup: What value of measured IC50 is listed for COC(C)CCOC(=O)Nc1nc2cc(C3(O)c4ccccc4C(=O)N3Cc3ccccc3)ccc2[nH]1 (stereo not shown) ?
Found: < 0.1 µM

---

Target: UniProt P04049
Sequence (P04049 whole entry): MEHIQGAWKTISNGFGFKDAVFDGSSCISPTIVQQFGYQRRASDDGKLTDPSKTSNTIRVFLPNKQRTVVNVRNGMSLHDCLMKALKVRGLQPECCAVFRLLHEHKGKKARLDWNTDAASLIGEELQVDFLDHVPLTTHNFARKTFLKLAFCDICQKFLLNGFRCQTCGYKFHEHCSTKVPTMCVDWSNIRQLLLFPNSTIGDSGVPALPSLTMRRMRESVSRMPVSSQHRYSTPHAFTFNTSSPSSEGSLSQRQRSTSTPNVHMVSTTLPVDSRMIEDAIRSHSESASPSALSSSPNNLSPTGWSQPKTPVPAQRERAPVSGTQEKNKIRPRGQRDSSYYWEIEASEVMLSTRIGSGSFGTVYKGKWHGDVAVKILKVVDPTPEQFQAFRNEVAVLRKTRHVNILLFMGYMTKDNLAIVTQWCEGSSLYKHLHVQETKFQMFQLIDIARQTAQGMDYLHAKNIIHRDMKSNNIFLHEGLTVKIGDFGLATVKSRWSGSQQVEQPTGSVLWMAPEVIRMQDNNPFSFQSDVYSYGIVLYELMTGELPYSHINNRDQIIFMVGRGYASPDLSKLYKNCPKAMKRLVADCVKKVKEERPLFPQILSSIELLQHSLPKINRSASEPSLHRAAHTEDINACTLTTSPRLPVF
Assay: Luciferase-coupled chemiluminescence kinase assay (ATP consumption), c-Raf
Format: biochemical
Settings: read-out: cRaf-1 IC50
Method: Tyrosine kinase activity is determined by 1) measurement of kinase-dependent ATP consumption by in the presence of a generic substrate such as […], tyrosine (pEY), by luciferase/luciferin-mediated chemiluminescence or; 2) incorporation of radioactive phosphate derived from ^33P-ATP into a generic substrate which has been adsorbed onto the well surface of polystyrene microtiter plates. Phosphorylated substrate products are quantified by scintillation spectrometry. […]
pIC50: −log10 of the molar value.
pIC50 values, listed per item

Recorded pIC50, per entry:
COMPOUND | pIC50
CN1CCN(CCCC(=O)Nc2nc3cc(C4(O)c5ccccc5C(=O)N4Cc4ccccc4)ccc3[nH]2)CC1 (centres unmarked) [Entry 264] | > 7.00
COC(=O)Nc1nc2cc(C3(O)c4ccccc4C(=O)N3Cc3ccccc3Br)ccc2[nH]1 (centres unmarked) [Entry 130] | 6.00 to 7.00
COC(=O)Nc1nc2cc(C3(O)c4ccccc4C(=O)N3c3cccc(OC(F)(F)C(F)F)c3)ccc2[nH]1 (centres unmarked) [Entry 255] | 5.00 to 6.00
COC(=O)Nc1nc2cc(C3(O)c4ccccc4C(=O)N3c3ccc(Cl)c(C)c3)ccc2[nH]1 (centres unmarked) [Entry 180] | > 7.00
COC(=O)Nc1nc2cc(C3(O)c4ccccc4C(=O)N3c3cc(Cl)c(Cl)cc3F)ccc2[nH]1 (centres unmarked) [Entry 250] | > 7.00

Lookup: What value of measured pIC50 is listed for COC(=O)Nc1nc2cc(C3(O)c4ccccc4C(=O)N3CC3CCC3)ccc2[nH]1 (centres unmarked) [Entry 207] ?
Found: > 7.00

Lookup: What value of measured pIC50 is listed for COC(=O)Nc1nc2cc(C3(O)c4ccccc4C(=O)N3Cc3ccncc3)ccc2[nH]1 (centres unmarked) [Entry 112] ?
Found: 5.00 to 6.00

Lookup: What value of measured pIC50 is listed for O=C1COc2ccc(C3(O)c4ccccc4C(=O)N3Cc3cccc(OC(F)(F)F)c3)cc2N1 (centres unmarked) [Entry 56] ?
Found: ≤ 5.00
